- Tested on: SK-MEL-5 melanoma
- EXPERIMENTAL_DETAILS: NCI-60 one-dose screen, 48 h (100 = growth as untreated, 0 = no growth, -100 = all killed)
- RUN_PARAMETERS: 10 µM unless noted
This is part of a sample that, as a whole, favours compounds with a hit. Of some 83,000 tested, about 20% had one in any assay.
ENDPOINT_LABEL: growth (%)
Answer with a number only, understood to be in %.

Req: Please look up its growth: CSc1nc(N)c(CNC(C)c2ccccc2)c(=O)n1C (stereo not drawn)
Resp: 113

Req: Fill blank: measured growth of the compound O=[N+]([O-])c1ccc(-c2cc3c(Nc4ccc(OCc5cccc(Cl)c5)c(Cl)c4)ncnc3s2)cc1 is ____.
Resp: 97.6

Req: Name the recorded growth for CCCCOc1ccc(NC(=O)n2nc(N=NN(C)C)c3ccc(Cl)cc32)cc1 .
Resp: 107

Req: Any idea what its growth is? The compound is CCN(CC)CCNc1ccc(C)c2sc3cc(C)ccc3c(=O)c12
Resp: 21.9

Req: Recorded growth for CCOC(=O)N1CCc2c(sc3c2C(=O)N[C@H](c2ccc(OC)cc2)N3)C1 , please?
Resp: 99.1

Req: What value of growth has been recorded for this entry: CCCCN1CCN(c2ccc3nc(-c4ccc5nc(-c6ccc(OCC)c(OCC)c6)[nH]c5c4)[nH]c3c2)CC1
Resp: 8.19

Req: Value lookup for growth; key = Cc1ccc(S(=O)(=O)NN/C(N)=N\S(=O)(=O)c2cc(C)c(Cl)cc2SCc2ccccc2)cc1
Resp: 104

Req: Given the compound N=C(N)c1ccc(-c2ccc(-c3ccc(Cl)c(Cl)c3)o2)cc1 , what is its reported growth?
Resp: 83.5

Req: Please look up its growth: COc1ccccc1C(=O)NC(=S)Nc1ccc(-c2nc3ccccc3[nH]2)cc1
Resp: 25.8

Req: Any idea what growth was measured for CC(=O)c1sc(-c2ccccc2)cc1N ?
Resp: 95.7

Req: So what does the record say about growth for COC1=CC(c2ccc[nH]2)=N/C1=C\c1[nH]c(C)c(C(=O)OCCn2cc(CCC[C@@H]3Cc4cc(O)ccc4C4CC[C@]5(C)[C@@H](O)CC[C@H]5C43)nn2)c1C (stereo partly drawn) ?
Resp: 88.2

Req: What value of growth has been reported for the following compound? COc1cc(CNC(=O)/C=C/C=C/c2ccc3c(c2)OCO3)ccc1OCc1cn(-c2ccc(Cl)c(Cl)c2)nn1
Resp: -41.1

Req: Any idea what growth was measured for Cn1ncc2c(Nc3ccc(Br)cc3)nc(Nc3ccc(Br)cc3)nc21 ?
Resp: 47.6

Req: I would be grateful if you could share the reported growth for O=C(NC1CCOCC1)c1ccc2c(c1)CN(c1ncc(Cc3cccc(-n4cccn4)c3)s1)CC2 .
Resp: 31.5

Req: // lookup growth for CCN1CCN(c2ccc(Nc3cc(-c4cccnc4Nc4c(Cl)c(OC)cc(OC)c4Cl)ncn3)cc2)CC1
Resp: 74

Req: Consider the compound shown here: COC(=O)CNC(=O)C(=O)c1c(O)c(O)c(C(C)C)c2cc(C)c(-c3c(C)cc4c(C(C)C)c(O)c(O)c(C(=O)C(=O)NCC(=O)OC)c4c3O)c(O)c12 What is its recorded growth?
Resp: 50.1

Req: Tell me the measured growth of CO/C(=C1/NC(=O)C(Cc2ccc(O)c(Br)c2)N(C)C(=O)C(C)NC(=O)CCC/C=C(\C)CCC(C)OC1=O)c1ccccc1 (stereo not drawn) , please.
Resp: -67.6

Req: I have this compound here, CC(=O)C(C(C)=O)c1nc2sc3cc(Cl)ccc3n2c(=N)c1C#N , and I need its recorded growth.
Resp: 74.6
